Target: SHC-transforming protein 1 (Homo sapiens, UniProt P29353)
Sequence (P29353 whole entry): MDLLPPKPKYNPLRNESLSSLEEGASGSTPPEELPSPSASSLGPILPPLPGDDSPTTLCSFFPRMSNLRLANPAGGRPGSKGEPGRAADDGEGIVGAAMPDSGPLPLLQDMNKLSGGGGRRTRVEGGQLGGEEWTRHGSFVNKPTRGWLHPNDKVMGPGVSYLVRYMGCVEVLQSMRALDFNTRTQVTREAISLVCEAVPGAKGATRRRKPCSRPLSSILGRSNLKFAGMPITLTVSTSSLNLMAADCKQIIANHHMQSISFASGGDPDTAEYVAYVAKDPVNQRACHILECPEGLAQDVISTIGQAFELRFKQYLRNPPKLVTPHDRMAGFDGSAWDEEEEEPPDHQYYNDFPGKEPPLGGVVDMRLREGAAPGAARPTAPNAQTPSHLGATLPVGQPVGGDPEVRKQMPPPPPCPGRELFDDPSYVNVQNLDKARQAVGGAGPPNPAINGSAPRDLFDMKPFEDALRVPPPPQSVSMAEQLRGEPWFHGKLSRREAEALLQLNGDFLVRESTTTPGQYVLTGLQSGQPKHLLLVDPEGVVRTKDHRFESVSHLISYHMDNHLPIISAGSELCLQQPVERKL
pIC50: −log10 of the molar value. *1 amine or outer side, *2 acyl side, *3 side chain or, on linkers, in order; H or OH if unused. Where a SMILES comes first, the peptide text is derived from it. [ ]: non-standard residue; d: D form. The star is where a group is joined. Gly(N-but-3-enyl) = O=C(CN(CCC=[*:3])[*:1])[*:2]; X5 = C=CCN([C@@H](CC(C)C)C(=O)[*:2])[*:1]; pY = N[C@@H](Cc1ccc(OP(=O)(O)O)cc1)C(=O)O; NH(but-3-enyl) = C=CCCN*; NHAllyl = C=CCN*
MEASURED_PARAMETER: pIC50

C=CCNC(=O)[C@H](CO)NC(=O)[C@H](CC(C)C)NC(=O)CNC(=O)[C@H](CCC(N)=O)NC(=O)[C@H](Cc1ccc(OP(=O)(O)O)cc1)N(CC=C)C(C)=O (HELM PEPTIDE1{[ac].[C=CCN([C@@H](Cc1ccc(OP(=O)(O)O)cc1)C(=O)[*:2])[*:1]].Q.G.L.S.[C=CCN[*:1]]}$$$$V2.0) = 4.39
C=CCN(CC(=O)N[C@@H](CC(C)C)C(N)=O)C(=O)[C@H](CCC(N)=O)NC(=O)[C@H](Cc1ccc(OP(=O)(O)O)cc1)NC(C)=O (HELM PEPTIDE1{[ac].[O=C([C@H](Cc1ccc(OP(=O)(O)O)cc1)N[*:1])[*:2]].Q.[C=CCN(CC(=O)[*:2])[*:1]].L.[am]}$$$$V2.0) = 4.58
CCC#CCN(CC(=O)N[C@@H](CC(C)C)C(N)=O)C(=O)[C@H](CCC(N)=O)NC(=O)[C@H](Cc1ccc(OP(=O)(O)O)cc1)NC(C)=O = 4.77
C=CCCNC(=O)[C@H](CO)NC(=O)[C@H](CC(C)C)NC(=O)CN(CCC=C)C(=O)[C@H](CCC(N)=O)NC(=O)[C@H](Cc1ccc(OP(=O)(O)O)cc1)NC(C)=O (Ac-[pY]Q[Gly(N-but-3-enyl)]LS-{NH(but-3-enyl)}) = 5.10
CC(=O)N[C@@H](Cc1ccc(OP(=O)(O)O)cc1)C(=O)N[C@@H](CCC(N)=O)C(=O)NCC(=O)N[C@@H](CC(C)C)C(N)=O (HELM PEPTIDE1{[ac].[O=C([C@H](Cc1ccc(OP(=O)(O)O)cc1)N[*:1])[*:2]].Q.G.L.[am]}$$$$V2.0) = 3.61
C=CCNC(=O)[C@H](CO)NC(=O)[C@H](CC(C)C)N(CC=C)C(=O)CNC(=O)[C@H](CCC(N)=O)NC(=O)[C@H](Cc1ccc(OP(=O)(O)O)cc1)NC(C)=O (Ac-[pY]QG[X5]S-NHAllyl) = 3.45
COCCN(CC(=O)N[C@@H](CC(C)C)C(N)=O)C(=O)[C@H](CCC(N)=O)NC(=O)[C@H](Cc1ccc(OP(=O)(O)O)cc1)NC(C)=O (HELM PEPTIDE1{[ac].[O=C([C@H](Cc1ccc(OP(=O)(O)O)cc1)N[*:1])[*:2]].Q.[COCCN(CC(=O)[*:2])[*:1]].L.[am]}$$$$V2.0) = 4.25
CC(=O)N[C@@H](Cc1ccc(OP(=O)(O)O)cc1)C(=O)N[C@@H](CCC(N)=O)C(=O)N(CCCCC#N)CC(=O)N[C@@H](CC(C)C)C(N)=O = 4.36
CC(=O)N[C@@H](Cc1ccc(OP(=O)(O)O)cc1)C(=O)N[C@@H](CCC(N)=O)C(=O)N(CCCCF)CC(=O)N[C@@H](CC(C)C)C(N)=O = 4.40

====

target: SHC-transforming protein 1 (Homo sapiens); assay: Displacement of FITC-tagged NH-(CH2)4-CO-phospho-tyrosine-glutamine-glycine-leucine-serine-amide from Shc Src homology 2 domain by fluorescence anisotropy competition assay
Where a SMILES comes first, the peptide text is derived from it.
Each item that follows carries a reported IC50.
MEASURED_PARAMETER: IC50 (µM)

CCN(CC(=O)N[C@@H](CC(C)C)C(N)=O)C(=O)[C@H](CCC(N)=O)NC(=O)[C@H](Cc1ccc(OP(=O)(O)O)cc1)NC(C)=O (HELM PEPTIDE1{[ac].[O=C([C@H](Cc1ccc(OP(=O)(O)O)cc1)N[*:1])[*:2]].Q.[CCN(CC(=O)[*:2])[*:1]].L.[am]}$$$$V2.0) = 19
CCSCCN(CC(=O)N[C@@H](CC(C)C)C(N)=O)C(=O)[C@H](CCC(N)=O)NC(=O)[C@H](Cc1ccc(OP(=O)(O)O)cc1)NC(C)=O = 34
CC#CCN(CC(=O)N[C@@H](CC(C)C)C(N)=O)C(=O)[C@H](CCC(N)=O)NC(=O)[C@H](Cc1ccc(OP(=O)(O)O)cc1)NC(C)=O = 83
CCOCCN(CC(=O)N[C@@H](CC(C)C)C(N)=O)C(=O)[C@H](CCC(N)=O)NC(=O)[C@H](Cc1ccc(OP(=O)(O)O)cc1)NC(C)=O (HELM PEPTIDE1{[ac].[O=C([C@H](Cc1ccc(OP(=O)(O)O)cc1)N[*:1])[*:2]].Q.[CCOCCN(CC(=O)[*:2])[*:1]].L.[am]}$$$$V2.0) = 33
CC(=O)N[C@@H](Cc1ccc(OP(=O)(O)O)cc1)C(=O)N[C@@H](CCC(N)=O)C(=O)N(CC(=O)N[C@@H](CC(C)C)C(N)=O)Cc1ccccc1 (HELM PEPTIDE1{[ac].[O=C([C@H](Cc1ccc(OP(=O)(O)O)cc1)N[*:1])[*:2]].Q.[O=C(CN(Cc1ccccc1)[*:1])[*:2]].L.[am]}$$$$V2.0) = 18.9
C=CCCCCN(CC(=O)N[C@@H](CC(C)C)C(N)=O)C(=O)[C@H](CCC(N)=O)NC(=O)[C@H](Cc1ccc(OP(=O)(O)O)cc1)NC(C)=O = 14
C=CCNC(=O)[C@H](CC(C)C)N(CC=C)C(=O)CNC(=O)[C@H](CCC(N)=O)NC(=O)[C@H](Cc1ccc(OP(=O)(O)O)cc1)NC(C)=O = 81
CC(=O)N[C@@H](Cc1ccc(OP(=O)(O)O)cc1)C(=O)N[C@@H](CCC(N)=O)C(=O)N(CCCC(C)C)CC(=O)N[C@@H](CC(C)C)C(N)=O = 29
C=CCCCN(CC(=O)N[C@@H](CC(C)C)C(N)=O)C(=O)[C@H](CCC(N)=O)NC(=O)[C@H](Cc1ccc(OP(=O)(O)O)cc1)NC(C)=O = 16
CC(=O)N[C@@H](Cc1ccc(OP(=O)(O)O)cc1)C(=O)N[C@@H](CCC(N)=O)C(=O)N(CCCC(F)(F)F)CC(=O)N[C@@H](CC(C)C)C(N)=O = 23

====

Biological target: SHC-transforming protein 1 (Homo sapiens)
Sequence (P29353 whole entry): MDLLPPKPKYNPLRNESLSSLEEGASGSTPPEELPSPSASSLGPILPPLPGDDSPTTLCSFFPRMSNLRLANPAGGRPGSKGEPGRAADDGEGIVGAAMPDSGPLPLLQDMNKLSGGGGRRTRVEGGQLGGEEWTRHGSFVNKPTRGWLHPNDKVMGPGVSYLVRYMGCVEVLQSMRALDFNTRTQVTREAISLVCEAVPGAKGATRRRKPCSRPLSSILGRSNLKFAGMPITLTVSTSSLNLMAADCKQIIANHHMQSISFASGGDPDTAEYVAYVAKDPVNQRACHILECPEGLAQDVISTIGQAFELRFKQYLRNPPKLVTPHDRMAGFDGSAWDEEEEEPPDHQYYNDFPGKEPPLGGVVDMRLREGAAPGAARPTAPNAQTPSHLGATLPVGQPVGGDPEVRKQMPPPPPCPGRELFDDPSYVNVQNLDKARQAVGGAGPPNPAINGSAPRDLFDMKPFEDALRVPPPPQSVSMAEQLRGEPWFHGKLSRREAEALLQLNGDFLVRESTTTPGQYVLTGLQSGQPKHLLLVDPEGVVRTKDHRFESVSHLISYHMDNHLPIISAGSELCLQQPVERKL
Where a SMILES comes first, the peptide text is derived from it.
MEASURED_PARAMETER: IC50 (µM)

CCCN(CC(=O)N[C@@H](CC(C)C)C(N)=O)C(=O)[C@H](CCC(N)=O)NC(=O)[C@H](Cc1ccc(OP(=O)(O)O)cc1)NC(C)=O (HELM PEPTIDE1{[ac].[O=C([C@H](Cc1ccc(OP(=O)(O)O)cc1)N[*:1])[*:2]].Q.[CCCN(CC(=O)[*:2])[*:1]].L.[am]}$$$$V2.0) = 25.7
CC(=O)N[C@@H](Cc1ccc(OP(=O)(O)O)cc1)C(=O)N[C@@H](CCC(N)=O)C(=O)N(CCC(C)C)CC(=O)N[C@@H](CC(C)C)C(N)=O (HELM PEPTIDE1{[ac].[O=C([C@H](Cc1ccc(OP(=O)(O)O)cc1)N[*:1])[*:2]].Q.[CC(C)CCN(CC(=O)[*:2])[*:1]].L.[am]}$$$$V2.0) = 17
C=CCNC(=O)[C@H](CC(C)C)NC(=O)CNC(=O)[C@H](CCC(N)=O)NC(=O)[C@H](Cc1ccc(OP(=O)(O)O)cc1)N(CC=C)C(C)=O = 450
